# Test System: B-Raf (V600E)-kinase (Homo sapiens (Human), UniProt P15056, V600E)
# Sequence (P15056 whole entry V600E): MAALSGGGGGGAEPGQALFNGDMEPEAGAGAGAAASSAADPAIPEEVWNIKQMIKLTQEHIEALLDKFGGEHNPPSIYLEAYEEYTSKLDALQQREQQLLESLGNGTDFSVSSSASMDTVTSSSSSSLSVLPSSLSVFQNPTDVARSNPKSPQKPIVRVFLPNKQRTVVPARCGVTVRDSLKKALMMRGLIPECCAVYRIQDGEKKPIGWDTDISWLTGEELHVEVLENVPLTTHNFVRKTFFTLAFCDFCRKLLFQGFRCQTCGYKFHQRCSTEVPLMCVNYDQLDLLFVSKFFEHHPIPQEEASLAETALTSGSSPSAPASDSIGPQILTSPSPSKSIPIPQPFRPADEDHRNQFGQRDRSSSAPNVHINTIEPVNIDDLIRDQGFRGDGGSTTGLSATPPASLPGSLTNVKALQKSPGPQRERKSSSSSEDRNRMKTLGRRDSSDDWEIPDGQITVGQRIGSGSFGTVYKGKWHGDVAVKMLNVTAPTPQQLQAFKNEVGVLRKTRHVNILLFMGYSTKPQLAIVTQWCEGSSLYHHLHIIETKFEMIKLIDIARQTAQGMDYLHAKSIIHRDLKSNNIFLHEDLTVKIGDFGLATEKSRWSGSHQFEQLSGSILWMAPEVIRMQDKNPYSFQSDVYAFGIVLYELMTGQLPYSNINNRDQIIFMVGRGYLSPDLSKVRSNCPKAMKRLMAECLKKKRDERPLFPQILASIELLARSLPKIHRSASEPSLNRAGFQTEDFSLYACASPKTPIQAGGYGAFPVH
# Protocol: Kinase test B-RAF (V600E)
# Format: biochemical
# Experimental Parameters: B-RAF (V600E) kinase test, 250 μM ATP
Measure Name: pIC50
Numbers only, as −log10 of the molar value.

Okay, here is my list. What is pIC50 for each of these?
1. Cc1ccc(C(=O)Nc2cc(N(C)CCN(C)C)cc(C(F)(F)F)c2)cc1Nc1ncnc2c(N)nc(N(C)C)nc12 [I-78]
2. COc1ccc(NC(=O)c2ccc(F)c(Nc3ncnc4cnc(N5CCCCC5)nc34)c2)cc1C(F)(F)F [III-35]
3. COc1ccc(C(=O)Nc2ccc(OC)c(C(F)(F)F)c2)cc1Nc1ncnc2cnc(N3CCCCCC3)nc12 [III-19]
4. Cc1ccc(NS(=O)(=O)c2cccc(C(F)(F)F)c2)cc1Nc1ncnc2cnc(N3CCN(C)CC3)nc12 [IV-61]
5. Cc1ccc(C(=O)Nc2ccc(F)c(C(F)(F)F)c2)cc1Nc1ncnc2cnc(N3CCCN(C)CC3)nc12 [III-216]
6. CN1CCN(c2nc(N)c3ncnc(Nc4cccc(C(=O)Nc5cccc(C(F)(F)F)c5)c4)c3n2)CC1 [I-19]

OUTPUT:
1. 8.10
2. 8.30
3. 9.00
4. 5.00
5. 8.52
6. 7.24

----------
# Test System: B-Raf (V600E)-kinase (Homo sapiens (Human), UniProt P15056, V600E)
# Protocol: Kinase test B-RAF (V600E)
# Type: biochemical
# Experimental Parameters: B-RAF (V600E) kinase test, 250 μM ATP
Answer each item with its documented IC50.
Answers are plain numbers, in nM.

Examples with their reported IC50 follow.
Molecule | IC50 (nM)
COc1ccc(NC(=O)c2ccc(Cl)c(Nc3ncnc4cnc(N(C)CCN5CCCC5)nc34)c2)cc1C(F)(F)F | 3
COc1ccc(NC(=O)c2ccc(C)c(Nc3ncnc4cnc(N5CCN6CCCCC6C5)nc34)c2)cc1C(F)(F)F (stereo not shown) | 18
Cc1ccc(C(=O)Nc2ccc(C#N)c(C(F)(F)F)c2)cc1Nc1ncnc2cnc(N3CCOCC3)nc12 | 4
Cc1ccc(C(=O)Nc2cc(C(C)(C)C)nn2C)cc1Nc1ncnc2cnc(N(C)CC3CCCCO3)nc12 (stereo not shown) | 17
COc1ccc(C(F)(F)F)cc1NC(=O)c1ccc(C)c(Nc2ncnc3cnc(N4CCCC4)nc23)c1 | 120

Okay, here is my list. What is IC50 for each of these?
1. COc1ccc(C(=O)Nc2cc(C(C)(C)C)on2)cc1Nc1ncnc2cnc(N3CCCCCC3)nc12
2. Cc1ccc(C(=O)Nc2cc(N3CCN(CCO)CC3)cc(C(F)(F)F)c2)cc1Nc1ncnc2cnc(N3CCOCC3)nc12
3. CN(C)C1CCN(c2ncc3ncnc(Nc4cc(C(=O)Nc5cc(C(C)(C)C)on5)ccc4F)c3n2)C1 (stereo not shown)
4. Cc1ccc(C(=O)Nc2cccc(C(F)(F)F)c2)cc1Nc1ncnc2cnc(N3CCN(C)CC3)nc12
5. Cc1ccc(C(=O)Nc2cccc(C(F)(F)F)c2)cc1Nc1ncnc2c(N)nc(N3CC(C)NC(C)C3)nc12 (stereo not shown)
6. COCCN(C)c1ncc2ncnc(Nc3cc(C(=O)Nc4cc(C(C)(C)C)on4)ccc3C)c2n1
7. Cc1ccc(C(=O)Nc2cccc(S(=O)(=O)N(C)C)c2)cc1Nc1ncnc2cnc(N3CCOCC3)nc12
8. CCN1CCN(c2cc(NC(=O)c3ccc(C)c(Nc4ncnc5cnc(N(C)CC6CCCCO6)nc45)c3)cc(C(F)(F)F)c2)CC1 (stereo not shown)

OUTPUT:
[3, 4, 2, 1, 2, 1, 2, 25]

----------
Answer each item with its documented pIC50.
# Test System: B-Raf (V600E)-kinase (Homo sapiens (Human), UniProt P15056, V600E)
# Protocol: Kinase test B-RAF (V600E)
# Type: biochemical
# Experimental Parameters: B-RAF (V600E) kinase test, 250 μM ATP
One number for each entry, as −log10 of the molar value.

Compound | Test System | pIC50
Cc1ccc(NC(=O)c2cccc(C(F)(F)F)c2)cc1Nc1ncnc2c(N)nc(N3CC4CC3CN4C)nc12 (stereo not shown) | B-Raf (V600E)-kinase (Homo sapiens (Human), UniProt P15056, V600E) | 8.05
Cc1ccc(C(=O)Nc2cc(C(C)(C)C)on2)cc1Nc1ncnc2cnc(N3CCC(N(C)C)CC3)nc12 | B-Raf (V600E)-kinase (Homo sapiens (Human), UniProt P15056, V600E) | 8.70

Turning now to a further record.
INPUT: Look up and report measured pIC50 for this entry: COc1ccc(NC(=O)c2ccc(Cl)c(Nc3ncnc4cnc(NCCN(C)C)nc34)c2)cc1C(F)(F)F
OUTPUT: 8.52

----------
# Test System: B-Raf (V600E)-kinase (Homo sapiens (Human), UniProt P15056, V600E)
# Protocol: Kinase test B-RAF (V600E)
# Format: biochemical
# Experimental Parameters: B-RAF (V600E) kinase test, 250 μM ATP
# Method: Kinase Test B-RAF (V600E) In a dilution series 10 μL of test substance solution are placed in a multiwell plate. The dilution series is selected so that generally a range of concentrations of 2 μM to 0.119 nM or 0.017 nM is covered. […] After the addition of 200 μL Enhancement Solution (Perkin Elmer, #4001-0010/#1244-105) the mixture is shaken for 10 min at RT and then measured in a Wallac Victor using the program “Delfia Time Resolved Fluorescence (Europium)”. […]
Measure Name: log10(IC50) (log10 of the value in nM)
Values below are the log10 of the recorded IC50, with nM as the unit.

Examples with their reported log10(IC50) follow.
Compound | log10(IC50)
Cc1ccc(C(=O)Nc2cc(N(C)CCN(C)C)cc(C(F)(F)F)c2)cc1Nc1ncnc2cnc(N3CCOCC3)nc12 [III-442] | 0.00
Cc1ccc(NC(=O)c2cccc(C(F)(F)F)c2)cc1Nc1ncnc2cnc(N3CCN(C)CC3)nc12 [IV-3] | 1.08
COc1cc(NC(=O)c2ccc(C)c(Nc3ncnc4c(N)nc(N5CCN(C)CC5)nc34)c2)cc(C(F)(F)F)c1 [I-54] | 0.70
CC(C)(C)c1cc(NC(=O)c2ccc(Cl)c(Nc3ncnc4cnc(N5CCCC5)nc34)c2)no1 [III-76] | 1.04
COc1ccc(NC(=O)c2ccc(C(F)(F)F)c(Nc3ncnc4cnc(NCCN(C)C)nc34)c2)cc1C(F)(F)F [III-52] | 3.35

Okay, here is my list. What is log10(IC50) for each of these?
1. O=C(NC1CCOC1)c1ccc(F)c(Nc2ncnc3cnc(NC4CCOC4)nc23)c1 (centres unmarked) [III-380]
2. Cc1ccc(C(=O)Nc2cccc(C(C)(C)C#N)c2)cc1Nc1ncnc2cnc(N(C)CCN(C)C)nc12 [III-198]

OUTPUT:
3.15
1.04

----------
# Test System: B-Raf (V600E)-kinase (Homo sapiens (Human), UniProt P15056, V600E)
# Protocol: Kinase test B-RAF (V600E)
# Assay type: biochemical
# Experimental Parameters: B-RAF (V600E) kinase test, 250 μM ATP
Answer each item with its documented pIC50.
Give bare numbers, as −log10 of the molar value.

Examples with their reported pIC50 follow.
Compound | pIC50
Cc1ccc(C(=O)Nc2cc(N3CCN(CC(C)C)CC3)cc(C(F)(F)F)c2)cc1Nc1ncnc2cnc(N3CCOCC3)nc12 [III-460] | 8.40
Cc1ccc(C(=O)Nc2cc(CN3CCCC3)cc(C(F)(F)F)c2)cc1Nc1ncnc2cnc(NCc3ccccc3)nc12 [III-105] | 8.52
Cc1ccc(C(=O)Nc2cc(C(C)(C)C)n[nH]2)cc1Nc1ncnc2c(N)nc(N3CCN(C4CCCC4)CC3)nc12 [I-39] | 8.30

Okay, here is my list. What is pIC50 for each of these?
1. Cc1ccc(C(=O)Nc2cc(CN3CCCC3)cc(C(F)(F)F)c2)cc1Nc1ncnc2cnc(NCCc3ccccc3)nc12 [III-118]
2. CN(C)c1ncc2ncnc(Nc3cc(C(=O)Nc4cc(C(C)(C)C)on4)ccc3F)c2n1 [III-93]
3. CN(CCN1CCCC1)c1ncc2ncnc(Nc3cc(C(=O)Nc4cc(C(C)(C)C)on4)ccc3Cl)c2n1 [III-71]

OUTPUT:
1. 8.70
2. 9.00
3. 8.52

----------
# Test System: B-Raf (V600E)-kinase (Homo sapiens (Human), UniProt P15056, V600E)
# Protocol: Kinase test B-RAF (V600E)
# Assay type: biochemical
# Experimental Parameters: B-RAF (V600E) kinase test, 250 μM ATP
Measure Name: IC50
Quote the value and follow it with the unit of measurement.

Examples with their reported IC50 follow.
Molecule | Test System | IC50
Cc1ccc(C(=O)NC2CC2)cc1Nc1ncnc2cnc(N3CCCC3)nc12 | B-Raf (V600E)-kinase (Homo sapiens (Human), UniProt P15056, V600E) | 2000 nM
Cc1ccc(C(=O)Nc2cc(CN3CCCC3)cc(C(F)(F)F)c2)cc1Nc1ncnc2cnc(NCC3CCOC3)nc12 (stereo not shown) | B-Raf (V600E)-kinase (Homo sapiens (Human), UniProt P15056, V600E) | 1 nM
Cc1ccc(C(=O)Nc2ccc(C(F)(F)F)cc2)cc1Nc1ncnc2c(N)nc(N3CCN(CC4CCN(C)CC4)CC3)nc12 | B-Raf (V600E)-kinase (Homo sapiens (Human), UniProt P15056, V600E) | 2 nM

Turning now to a further record.
INPUT: Look up and report measured IC50 for this entry: CC(C)(C)c1cc(NC(=O)c2ccc(F)c(Nc3ncnc4cnc(N5CCN(CC6CC6)CC5)nc34)c2)no1
OUTPUT: 4 nM
